Sourced from patent US9394291B2

Study Target: MR (UAS-MR-bla HEK293 cells) (Homo sapiens, UniProt P08235)
Sequence (P08235 whole entry, looked up): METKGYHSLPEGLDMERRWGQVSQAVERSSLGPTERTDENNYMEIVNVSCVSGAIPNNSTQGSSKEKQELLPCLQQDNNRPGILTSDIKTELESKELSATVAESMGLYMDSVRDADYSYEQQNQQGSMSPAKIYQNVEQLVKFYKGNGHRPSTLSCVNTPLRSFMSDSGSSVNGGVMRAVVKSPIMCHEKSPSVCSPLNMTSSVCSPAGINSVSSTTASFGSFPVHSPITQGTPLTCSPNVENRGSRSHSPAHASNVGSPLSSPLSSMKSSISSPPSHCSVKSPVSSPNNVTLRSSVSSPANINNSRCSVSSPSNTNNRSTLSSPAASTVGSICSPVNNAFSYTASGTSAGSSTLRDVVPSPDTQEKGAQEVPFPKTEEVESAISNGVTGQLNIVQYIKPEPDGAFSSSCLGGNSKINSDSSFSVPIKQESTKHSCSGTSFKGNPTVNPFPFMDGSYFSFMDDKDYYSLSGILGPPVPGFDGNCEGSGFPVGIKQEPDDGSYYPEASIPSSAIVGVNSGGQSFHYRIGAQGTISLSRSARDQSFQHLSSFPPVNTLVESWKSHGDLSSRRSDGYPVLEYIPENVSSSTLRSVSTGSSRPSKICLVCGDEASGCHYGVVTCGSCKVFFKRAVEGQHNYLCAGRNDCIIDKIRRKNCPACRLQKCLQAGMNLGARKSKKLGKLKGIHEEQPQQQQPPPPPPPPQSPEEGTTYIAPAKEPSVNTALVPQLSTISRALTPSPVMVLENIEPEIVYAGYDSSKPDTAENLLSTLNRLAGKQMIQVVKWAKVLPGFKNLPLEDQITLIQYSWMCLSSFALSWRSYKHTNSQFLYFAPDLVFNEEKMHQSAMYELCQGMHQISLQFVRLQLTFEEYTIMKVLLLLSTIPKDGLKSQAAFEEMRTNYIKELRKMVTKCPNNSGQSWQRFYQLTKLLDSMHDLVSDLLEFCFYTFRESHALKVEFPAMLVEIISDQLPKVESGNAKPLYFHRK
Test Details: cell-based
Measure: pIC50
Numbers only, as −log10 of the molar value.

MR (UAS-MR-bla HEK293 cells) (Homo sapiens, UniProt P08235) pIC50 of NC(=O)CC1COc2ccccc2N1C(=O)c1ccc2c(c1)NC(=O)CO2 (stereo not shown) [Example 1] is 6.21

---

Study Target: human MR LBD (Homo sapiens (Human))
Sequence (P08235 729-984 limits assumed): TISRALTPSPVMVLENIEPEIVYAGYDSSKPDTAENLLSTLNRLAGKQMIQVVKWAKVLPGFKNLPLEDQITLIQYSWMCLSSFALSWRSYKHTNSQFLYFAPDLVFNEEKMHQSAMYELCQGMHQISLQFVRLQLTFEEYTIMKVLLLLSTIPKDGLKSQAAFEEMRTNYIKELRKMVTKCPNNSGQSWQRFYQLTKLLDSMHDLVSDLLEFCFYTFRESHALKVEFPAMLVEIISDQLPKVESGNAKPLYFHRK
Test Details: Mineralocorticoid Binding, Test A1 (SPA beads, 3H-aldosterone displacement)
Conditions Used: displacement of 5 nM 3H-aldosterone, MBP-MR LBD/P23 lysate
Measure: IC50 (nM)
One number for each entry, in nM.

1) NC(=O)C[C@H]1COc2cc(Br)ccc2N1C(=O)c1ccc2c(c1)NC(=O)CO2 [Example 7] : 9.5

human MR LBD (Homo sapiens (Human)) IC50 of NC(=O)CC1COc2ccccc2N1C(=O)c1ccc2c(c1)NC(=O)CO2 (centres unmarked) [Example 1] is 1400

---

Give measured IC50 for each item. Keep answers brief.
Study Target: MR (UAS-MR-bla HEK293 cells) (Homo sapiens)
Test Details: Mineralocorticoid Cellular Reporter Gene Assay, Test B1 (0.25 nM aldosterone)
One number for each entry, in nM.

1. NC(=O)CC1COc2ccccc2N1C(=O)c1ccc2c(c1)NC(=O)CO2 (centres unmarked) [Example 1] : 2100

Continue with the next molecule.
Quick note, IC50 for NC(=O)C[C@H]1COc2cc(Br)ccc2N1C(=O)c1ccc2c(c1)NC(=O)CO2 [Example 7] landed at 45
